Recorded values, source paper PMC9861184.

System: SigW (ECF sigma factor, GST fusion) (Pseudomonas donghuensis HYS), ORF:b11b1795
Sequence: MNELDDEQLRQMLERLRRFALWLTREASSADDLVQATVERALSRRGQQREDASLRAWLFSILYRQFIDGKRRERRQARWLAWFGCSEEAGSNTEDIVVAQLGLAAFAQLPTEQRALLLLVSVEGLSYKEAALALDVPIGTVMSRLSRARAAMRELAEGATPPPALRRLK
Test: EMSA
Conditions: EMSA: 0.3 uM DNA in 20 uL, 10 mM Tris-HCl pH 7.5, 150 mM NaCl, 2 mM DTT, 2 mM EDTA, 10% glycerol, 30 C 40 min; 6.8% native PAGE in 0.5x TBE on ice, EB stain
assay readout: binding

CCCTACCGTATTTGAACGGCTGGCCAGCCCTCTGTGTCCTTGCACGCCCTTGAGTTAGGGCCTGCATGCCCCATTTGCGGGCAGAGAACACTGCCGGTTCAAAGACATTCAGGGAAAAACCTCCAGGATCGGAGCCCCGTGGTCTGGCTGGCAGTCTTTCTCACAAATGCGATCAGGTAAATTCTGGAGTCATTCGTGAAACAAGCTCAACTTCCGCGCAAGATACCCACACAAGCCCGCTCGAGG (double strand) [orf12 promoter] :: binds
TCAATGGCGATCAGTACCGAGCTGTACATGGTGACGGGACCCATTCTGAATACAAAGAGCAGGCATTCTTGAAAAAGCGTGCGGCCGGGTAAATGGTGCGCGGTGCAATGACTAGTTGCGCAGAATGCAAGGGCTGGAAAACCTGCAGAAACTGGTAAGATTGCAGCGGATTCACTGAAATACATGAATGGATGCTTACCATGCACTTTCCGGATA (double strand) [orf1 promoter] :: binds
